Test system: Enterococcus
test: Antibacterial activity against vancomycin resistant Enterococcus FN-1 after 24 hrs by microdilution method
Type: functional
condition_set: FN-1, 24 h
reported_property: MIC (µg/mL)
The answer is to be given in µg/mL; state only the numeric part.

Example molecules with recorded MIC:
compound_smiles | assayed_system | reported_property | observed_result
O=C(Cc1ccc(F)cc1)OC[C@H]1O[C@@H](Oc2c(-c3ccc(O)c(O)c3)oc3cc(O)cc(O)c3c2=O)[C@H](OC(=O)Cc2ccc(F)cc2)[C@@H](O)[C@H]1O | Enterococcus | MIC | 0.5
O=C(CCc1ccc(F)cc1)Oc1cc(O)c2c(=O)c(OC(=O)CCc3ccc(F)cc3)c(-c3ccc(O)c(O)c3)oc2c1 | Enterococcus | MIC | 64

Prompt line: What value of MIC has been recorded for this entry: O=C(CCCCc1ccc(F)cc1)OC[C@H]1O[C@@H](Oc2c(-c3ccc(O)c(O)c3)oc3cc(O)cc(O)c3c2=O)[C@H](OC(=O)CCCCc2ccc(F)cc2)[C@@H](O)[C@H]1O
Response line: 16

###

MIC listing for selected compounds.
Tested on: Staphylococcus aureus
test: Antibacterial activity against methicillin-resistant Staphylococcus aureus OM584 after 24 hrs by microdilution method
Type: functional
condition_set: OM584, 24 h
Answer format reminder: number followed by unit.

compound_smiles | reported_property | observed_result
CC(=O)OC[C@H]1O[C@@H](Oc2c(-c3ccc(O)c(O)c3)oc3cc(O)cc(O)c3c2=O)[C@H](OC(C)=O)[C@@H](OC(C)=O)[C@H]1OC(C)=O | MIC | 32 µg/mL
O=C(CCc1ccc(F)cc1)Oc1cc(O)c2c(=O)c(OC(=O)CCc3ccc(F)cc3)c(-c3ccc(O)c(O)c3)oc2c1 | MIC | 16 µg/mL
CCCc1ccc(C(=O)OC[C@H]2O[C@@H](Oc3c(-c4ccc(O)c(O)c4)oc4cc(O)cc(O)c4c3=O)[C@H](OC(=O)c3ccc(CCC)cc3)[C@@H](O)[C@H]2O)cc1 | MIC | 4 µg/mL

Prompt line: What value of MIC has been recorded for this entry: O=C(CCc1ccc(F)cc1)OC[C@H]1O[C@@H](Oc2c(-c3ccc(O)c(O)c3)oc3cc(O)cc(O)c3c2=O)[C@H](O)[C@@H](O)[C@H]1O
Response line: 16 µg/mL

Prompt line: What value of MIC has been recorded for this entry: CCOc1ccc(CCC(=O)OC[C@H]2O[C@@H](Oc3c(-c4ccc(O)c(O)c4)oc4cc(O)cc(O)c4c3=O)[C@H](OC(=O)CCc3ccc(OCC)cc3)[C@@H](O)[C@H]2O)cc1
Response line: 4 µg/mL

Prompt line: What value of MIC has been recorded for this entry: CN[C@H](CC(C)C)C(=O)N[C@H]1C(=O)N[C@@H](CC(N)=O)C(=O)N[C@H]2C(=O)N[C@H]3C(=O)N[C@H](C(=O)N[C@H](C(=O)O)c4cc(O)cc(O)c4-c4cc3ccc4O)[C@H](O)c3ccc(c(Cl)c3)Oc3cc2cc(c3O[C@@H]2O[C@H](CO)[C@@H](O)[C@H](O)[C@H]2O[C@H]2C[C@](C)(N)[C@H](O)[C@H](C)O2)Oc2ccc(cc2Cl)[C@H]1O
Response line: 0.25 µg/mL

Prompt line: What value of MIC has been recorded for this entry: O=C(CCc1ccc(O)cc1)OC[C@H]1O[C@@H](Oc2c(-c3ccc(O)c(O)c3)oc3cc(O)cc(O)c3c2=O)[C@H](OC(=O)CCc2ccc(O)cc2)[C@@H](O)[C@H]1O
Response line: 1 µg/mL

Prompt line: What value of MIC has been recorded for this entry: O=C(CCc1ccc(F)cc1)O[C@H]1[C@H](Oc2c(-c3ccc(O)c(O)c3)oc3cc(O)cc(O)c3c2=O)O[C@H](CO)[C@@H](O)[C@@H]1OC(=O)CCc1ccc(F)cc1
Response line: 2 µg/mL

Prompt line: What value of MIC has been recorded for this entry: CC(=O)OC[C@H]1O[C@@H](Oc2cc(O)c3c(=O)c(O[C@@H]4O[C@H](COC(C)=O)[C@H](OC(C)=O)[C@H](OC(C)=O)[C@H]4OC(C)=O)c(-c4ccc(O)c(O)c4)oc3c2)[C@H](OC(C)=O)[C@@H](OC(C)=O)[C@H]1OC(C)=O
Response line: 128 µg/mL
